# study system: T1, recombinant monkey CD73 protein (monkey, UniProt A0A2K5V5U7 27-549)
# T1 construct: Monkey species not further named for the recombinant protein (the cell line is called cynoCD73)
# T1 sequence: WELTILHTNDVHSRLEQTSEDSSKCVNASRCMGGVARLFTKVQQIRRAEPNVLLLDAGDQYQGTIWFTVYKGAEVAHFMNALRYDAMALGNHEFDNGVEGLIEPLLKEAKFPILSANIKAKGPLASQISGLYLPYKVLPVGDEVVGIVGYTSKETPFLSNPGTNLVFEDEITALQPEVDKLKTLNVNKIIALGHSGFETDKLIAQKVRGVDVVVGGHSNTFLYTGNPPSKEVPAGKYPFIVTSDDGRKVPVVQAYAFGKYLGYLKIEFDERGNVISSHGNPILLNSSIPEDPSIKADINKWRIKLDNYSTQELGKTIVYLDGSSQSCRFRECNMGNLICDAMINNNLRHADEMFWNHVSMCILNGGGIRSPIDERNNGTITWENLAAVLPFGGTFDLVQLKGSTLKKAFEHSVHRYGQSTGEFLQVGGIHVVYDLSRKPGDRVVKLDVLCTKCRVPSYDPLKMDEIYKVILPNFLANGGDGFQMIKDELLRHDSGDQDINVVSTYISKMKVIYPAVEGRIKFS
# test: ELISA, recombinant monkey CD73
Consider the following binders and their measured EC50 readings.

- binder: "humanized CQ137 monoclonal antibody (137-4) (antibody, V domains shown) VH: QVQLVQSGAEVKKPGSSVKVSCKASGYSFTGYYIHWVRQAPGQGLEWMGRINPYNGATTYNQNFKDRVTITVDKSTSTAYMELSSLRSEDTAVYYCARFHYGAVDYWGQGTLVTVSS VL: DIQMTQSPSSLSASVGDRVTITCKASQDINTYLTWYQQKPGKAPKTLIYRANILVDGVPSRFSGSGSGTDFTLTISSLQPEDFATYYCLQYEEFPLTFGGGTKVEIKR"
  EC50: "0.352 µg/mL"
- binder: "humanized CQ137 monoclonal antibody (137-7) (antibody, V domains shown) VH: QVQLVQSGAEVKKPGSSVKVSCKASGYSFTGYYIHWVRQAPGQGLEWMGRINPYNGATTYNQNFKDRVTITVDKSTSTAYMELSSLRSEDTAVYYCARFHYGAPNYWGQGTLVTVSS VL: DIQMTQSPSSLSASVGDRVTITCKASQDINTYLTWYQQKPGKAPKTLIYRANILVDGVPSRFSGSGSGTDFTLTISSLQPEDFATYYCLQYDDFPLTFGGGTKVEIKR"
  EC50: "6.57 µg/mL"

Value source: patent US20240174763A1
